Hey, just so you know, these numbers are from PubChem BioAssay (EPA / NIEHS).

assay_comment: ACEA_ER_AUC_viability: ACEA Biosciences xCELLigence Real-Time Cell Analysis on Estrogen Receptor Agonism for Viability (AID 2283782);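 also: continuous compound exposure with impedance area under curve over 80 h; hit means loss of impedance signal meaning reduced cell growth or viability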
Results filed as inconclusive are left out. Active and inactive are the calls of the source. The calls were made as follows: active = hit-call score of the fitted dose curve at least 0.9, where 1 is the maximum; inconclusive = response in the unintended direction; inactive = score below 0.9.
Classes to choose from: Yes = active, No = inactive

What did this assay record as the result for CCOc1ccc2c(c1)C(C)=CC(C)(C)N2 ?
No

Try the compound Oc1ccc2c(c1)OC[C@@H](N1CCC(O)(c3ccc(F)cc3)CC1)[C@H]2O
No

Next record, please: COc1ccc(C)cc1N
No

Another compound: CN[C@H]1CC[C@@H](c2ccc(Cl)c(Cl)c2)c2ccc(S(N)(=O)=O)cc21
Yes

Next entry: Cc1cccc(C)c1O
No

Would you kindly repeat that for FC(F)(F)C(F)(F)C(F)(F)C(F)(F)C(F)(F)C(F)(F)CCI ?
No

Thanks! And CC(=O)OC/C=C(\C)CCC=C(C)C ?
No

Now the compound Cc1ccc(C)c(O)c1C
No

Moving on to the next compound: Clc1cc(Cl)c(Cl)cc1Cl
No

Next compound: CCCCC(CC)COC(=O)CC(C(=O)OCC(CC)CCCC)S(=O)(=O)O (configuration not stated)
Yes

Now give it for Cc1ccc(C(C)C)c(O)c1 too.
No

Entry to check: COc1cccc2c1C(=O)c1c(O)c3c(c(O)c1C2=O)C[C@@](O)(C(=O)CO)C[C@@H]3O[C@H]1C[C@H](N)[C@H](O)[C@H](C)O1
No
